Let's look at some compounds and their measured Emax.
Biological target: p53 Y220C (Homo sapiens, UniProt P04637, Y220C)
Assay: Luciferase Reporter Assay (Luc), p53 response element, NClH1299 cells with inducible p53 Y220C
Type: cell-based
Conditions: luciferase reporter, NClH1299 inducible p53 Y220C, 6 hour; 10 uM tool compound as positive control
outcome_measure: Emax

>>> endpoint_result("CNC(=O)N1CCC(Nc2cccn3c(CC(F)(F)F)c(C#CCNc4ccc(S(C)(=O)=O)cc4OC)nc23)CC1 [Example 117]")
"70 to 80%"
>>> endpoint_result("CNC(=O)c1ccc(NCC#Cc2nc3c(NC4CCN(C)CC4)cc(NC(=O)OC(C)(C)C)cn3c2CC(F)(F)F)c(OC)c1 [Example 39]")
"< 70%"
>>> endpoint_result("CN1CC[C@@H](Nc2cccn3c(CC(F)(F)F)c(C#CCNc4ccccc4)nc23)[C@@H](F)C1 [Example 112]")
"70 to 80%"
>>> endpoint_result("CNC(=O)c1ccc(NCC#Cc2nc3c(NC4CC5(C4)CN(CC(F)F)C5)cccn3c2SC(F)(F)F)c(OC)c1 [Example 173]")
"70 to 80%"
